- STUDY SYSTEM: CYP3A4 (Homo sapiens, UniProt P08684)
- Sequence (P08684 whole entry): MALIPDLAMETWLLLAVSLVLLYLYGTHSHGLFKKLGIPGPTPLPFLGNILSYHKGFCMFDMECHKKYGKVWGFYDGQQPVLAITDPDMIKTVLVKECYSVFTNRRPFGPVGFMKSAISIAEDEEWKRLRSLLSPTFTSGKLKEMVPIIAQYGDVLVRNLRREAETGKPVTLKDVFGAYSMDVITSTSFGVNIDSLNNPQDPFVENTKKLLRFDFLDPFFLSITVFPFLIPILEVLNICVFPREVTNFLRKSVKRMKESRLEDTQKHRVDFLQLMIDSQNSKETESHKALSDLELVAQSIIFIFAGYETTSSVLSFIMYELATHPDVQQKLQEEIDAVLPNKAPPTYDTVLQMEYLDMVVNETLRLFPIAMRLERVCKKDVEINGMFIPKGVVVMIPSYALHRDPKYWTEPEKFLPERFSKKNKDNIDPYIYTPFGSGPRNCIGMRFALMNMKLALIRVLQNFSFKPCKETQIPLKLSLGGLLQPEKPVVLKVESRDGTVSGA
- ASSAY TEXT: Time dependent inhibition of CYP3A4 (unknown origin) at 50 uM by LC/MS system
- Assay type: ADME
MEASURED ATTRIBUTE: inhibition at 50 µM (%)
Give the value, in units of %, as a plain number.

Item C#C[C@]1(O)CC[C@H]2[C@@H]3CCc4cc(O)ccc4[C@H]3CC[C@@]21C has what recorded inhibition at 50 µM?
65

###

Measured inhibition at 10 µM values are reported for all entries that follow.
- STUDY SYSTEM: CYP2D6 (Homo sapiens)
- Sequence (P10635 whole entry): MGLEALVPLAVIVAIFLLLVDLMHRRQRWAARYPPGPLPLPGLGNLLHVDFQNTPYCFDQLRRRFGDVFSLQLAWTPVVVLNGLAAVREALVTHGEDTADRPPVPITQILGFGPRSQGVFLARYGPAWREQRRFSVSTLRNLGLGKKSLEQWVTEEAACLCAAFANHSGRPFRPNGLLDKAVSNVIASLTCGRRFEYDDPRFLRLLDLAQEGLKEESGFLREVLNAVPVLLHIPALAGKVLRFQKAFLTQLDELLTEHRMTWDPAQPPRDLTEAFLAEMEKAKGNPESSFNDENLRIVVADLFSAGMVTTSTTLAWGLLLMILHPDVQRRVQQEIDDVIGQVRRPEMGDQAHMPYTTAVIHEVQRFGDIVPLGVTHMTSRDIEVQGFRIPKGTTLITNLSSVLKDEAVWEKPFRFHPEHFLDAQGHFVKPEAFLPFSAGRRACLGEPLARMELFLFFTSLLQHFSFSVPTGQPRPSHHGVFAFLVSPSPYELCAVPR
- ASSAY TEXT: Time dependent inhibition of CYP2D6 (unknown origin) at 10 uM by LC/MS system
- Assay type: ADME

Reference set (2 entries):
MOLECULE | ENDPOINT RESULT
CCN(CC)Cc1cc(Nc2ccnc3cc(Cl)ccc23)ccc1O [AMODIAQUINE] | < 10%
CNCCC(Oc1ccc(C(F)(F)F)cc1)c1ccccc1 (stereo not drawn) [FLUOXETINE] | < 10%

# next molecule below
Item Clc1ccccc1CN1CCc2sccc2C1 [TICLOPIDINE] has what recorded inhibition at 10 µM?
< 10%
